Test system: Protein deacetylase HDAC6 (Homo sapiens)
Sequence (Q9UBN7 whole entry): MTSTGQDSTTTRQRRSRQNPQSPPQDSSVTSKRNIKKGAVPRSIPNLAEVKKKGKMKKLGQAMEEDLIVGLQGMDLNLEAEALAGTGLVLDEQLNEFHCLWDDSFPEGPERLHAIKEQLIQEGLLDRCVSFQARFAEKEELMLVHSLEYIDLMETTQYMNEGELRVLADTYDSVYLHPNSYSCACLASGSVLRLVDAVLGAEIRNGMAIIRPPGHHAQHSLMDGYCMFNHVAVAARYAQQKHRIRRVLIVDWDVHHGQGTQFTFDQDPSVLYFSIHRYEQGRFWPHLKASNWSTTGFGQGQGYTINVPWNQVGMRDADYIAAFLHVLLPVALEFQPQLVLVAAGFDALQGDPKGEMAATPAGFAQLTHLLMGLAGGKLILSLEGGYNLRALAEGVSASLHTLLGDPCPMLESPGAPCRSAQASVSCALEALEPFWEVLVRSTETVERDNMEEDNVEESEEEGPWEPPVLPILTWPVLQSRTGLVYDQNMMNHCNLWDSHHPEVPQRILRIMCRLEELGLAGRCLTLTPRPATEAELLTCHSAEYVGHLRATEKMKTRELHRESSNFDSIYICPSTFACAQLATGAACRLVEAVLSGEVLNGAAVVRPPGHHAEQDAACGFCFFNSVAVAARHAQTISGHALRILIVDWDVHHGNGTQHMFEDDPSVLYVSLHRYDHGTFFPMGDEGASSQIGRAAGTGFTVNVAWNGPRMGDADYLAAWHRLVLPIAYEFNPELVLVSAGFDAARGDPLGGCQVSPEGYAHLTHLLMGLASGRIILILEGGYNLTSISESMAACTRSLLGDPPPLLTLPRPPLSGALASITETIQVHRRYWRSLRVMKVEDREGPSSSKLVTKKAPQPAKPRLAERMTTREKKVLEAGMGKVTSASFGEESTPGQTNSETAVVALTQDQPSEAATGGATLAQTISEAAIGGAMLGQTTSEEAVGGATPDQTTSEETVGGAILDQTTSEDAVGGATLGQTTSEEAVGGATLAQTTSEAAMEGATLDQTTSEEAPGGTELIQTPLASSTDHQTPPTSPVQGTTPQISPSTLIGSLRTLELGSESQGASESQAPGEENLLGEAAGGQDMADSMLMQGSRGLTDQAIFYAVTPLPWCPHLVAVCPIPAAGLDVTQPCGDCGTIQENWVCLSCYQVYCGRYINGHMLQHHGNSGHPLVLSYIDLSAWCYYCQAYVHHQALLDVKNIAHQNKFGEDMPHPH
With a cut-off of 3 nM, any IC50 strictly below it is called YES; any IC50 meeting it or above is called NO.

Smiles representation	Class name
O=C(NO)c1ccc(CN2C(=O)CCc3cc(Cl)ccc32)cc1	YES
O=C(NO)c1ccc(CN2C(=O)CCc3cc(C4CC4)ccc32)cc1	YES
O=C(NO)c1ccc(CN2CCCCc3cc(Cl)ccc32)cc1	YES
O=C(NO)c1ccc(CN2CCCCc3ccccc32)cc1	NO
O=C(NO)c1ccc(CN2CCCCc3cc(-c4cc[nH]n4)ccc32)cc1	NO
NC(=O)c1ccc2c(c1)CCCN2Cc1ccc(C(=O)NO)cc1	YES
N#Cc1ccc2c(c1)CCCCN2Cc1ccc(C(=O)NO)cc1	NO
O=C(NO)c1ccc(CN2C(=O)CCCc3cc(Cl)ccc32)cc1	YES
O=C(NO)c1ccc(CN2CCCCc3cc(Br)ccc32)cc1	NO
O=C(NO)c1ccc(CN2CCCc3cc(-c4cc[nH]n4)ccc32)cc1	YES
O=C(NO)c1ccc(CN2C(=O)CCc3cc(Br)ccc32)cc1	YES
NC(=O)c1ccc2c(c1)CCCCN2Cc1ccc(C(=O)NO)cc1	YES
CCCc1ccc2c(c1)CCC(=O)N2Cc1ccc(C(=O)NO)cc1	NO
N#Cc1ccc2c(c1)CCCN2Cc1ccc(C(=O)NO)cc1	YES
